Reported pIC50 is given for each of the following compounds.
Target: KRasG12D (Homo sapiens, UniProt P01116, G12D)
Sequence (P01116 1-188 isoform P01116-2 G12D): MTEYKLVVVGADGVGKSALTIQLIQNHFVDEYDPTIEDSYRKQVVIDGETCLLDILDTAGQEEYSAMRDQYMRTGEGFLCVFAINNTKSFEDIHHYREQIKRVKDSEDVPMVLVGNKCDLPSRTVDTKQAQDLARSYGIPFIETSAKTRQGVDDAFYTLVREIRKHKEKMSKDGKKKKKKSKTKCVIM
Assay: KRAS inhibitory activity test, TR-FRET (inhibition of binding of KRasG12D to GTP, SOS/GTP nucleotide exchange)
Details: read-out: IC50 values of the compounds for inhibiting KRAS enzymes, G12D
Procedure: • 1. […] Reagent Preparation: • a. Storage Reagents: Prepare a 1L solution by mixing 20mL of 1000mM HEPES, 20mL of 500mM EDTA, 10mL of 5M sodium chloride, 0.1mL of 100% Tween 20, and 949.9mL of water. Sterilize by filtration and store at 4°C. Prepare a 1L solution by mixing 20mL of 1000mM HEPES, 10mL of 1000mM magnesium chloride, 30mL of 5M sodium chloride, 0.05mL of 100% Tween 20, and 939.95mL of water. Sterilize by filtration and store at 4°C. […]
pIC50: −log10 of the molar value.

Prompt: Give the reported pIC50 for this compound. `Cc1cc(N)c(F)c([C@@H]2Cc3nc(OC[C@@]45CCCN4C[C@H](F)C5)nc(N4CCC[C@@](C)(O)C4)c3CS2(=O)=O)c1C(F)(F)F`
Completion: 7.00 to 8.00

Prompt: Tell me pIC50 reported for C=C1CN2CCC[C@@]2(COc2nc3c(c(N4CC5CCC(C4)N5)n2)CS(=O)(=O)C(c2c(F)c(N)cc(C#CC)c2C(F)(F)F)C3)C1 (stereo partly drawn)
Completion: ≥ 8.00

Prompt: # return recorded pIC50 for entry Cc1cc(N)c(F)c(C2Cc3nc(OC[C@@]45CCCN4C[C@H](F)C5)nc(N4C[C@H]5CC[C@@H](C4)N5)c3CS2(=O)=O)c1C(F)(F)F (stereo partly drawn)
Completion: ≥ 8.00

Prompt: Indicate the recorded pIC50 value for this compound: Cc1cc(O)nc(C2Cc3nc(OC[C@@]45CCCN4C[C@H](F)C5)nc(N4CCC[C@@](C)(O)C4)c3CS2(=O)=O)c1C(F)(F)F (stereo partly drawn)
Completion: ≥ 8.00

Prompt: Look up and state reported pIC50 for CC#Cc1cc(N)c(F)c(C2Cc3nc(OC[C@@]45CCCN4CC(=C(F)F)C5)nc(N4CC5CCC(C4)N5)c3CS2(=O)=O)c1C(F)(F)F (stereo partly drawn)
Completion: ≥ 8.00

Prompt: Check the records and state pIC50 for CC#Cc1cc(N)cc(C2Cc3nc(OC[C@@]45CCCN4C/C(=C\F)C5)nc(N4CC5CCC(C4)N5)c3CS2(=O)=O)c1C(F)(F)F (stereo partly drawn)
Completion: ≥ 8.00

Measured values drawn from patent EP4818178A1 for this set.
